Hello, the source for this data is paper PMC4552634, in case you need it.

# Tested on: P. falciparum stage V gametocytes
# Parameters: BacTiter-Glo ATP luminescence viability of purified stage V gametocytes in 384-well plates, per cent inhibition versus DMSO
# experimental-context: 48 h, 5 µM; inhibitor
The campaign covered roughly 13,000 compounds. About 3,200 (25%) showed an effect of 50% or more. The list shows a part of the results.
Listed here: items and their measured % Inhibition.
measured-attribute: % Inhibition (%)

>  <compound>
Cc1ccc(O)c(-c2cc(C(=O)Nc3ccc(S(=O)(=O)N4CCCCCC4)cc3)[nH]n2)c1

>  <readout-units>
%

>  <observed-measurement>
-31.36

$$$$
>  <compound>
CN(C)c1ccc(-c2cscc2C(=O)NC2CCCN(Cc3cccnc3)C2)cc1 (stereo not shown)

>  <readout-units>
%

>  <observed-measurement>
34.49

$$$$
>  <compound>
O=C(Nc1ccc(Cl)cc1)Nc1ccc(-c2cccc(-c3nc4ccc(F)cc4[nH]3)c2)cc1

>  <readout-units>
%

>  <observed-measurement>
-8.569

$$$$
>  <compound>
CC(=O)Nc1cccc(C(=O)Nc2cccc(-c3cccc(-c4nc5ccc(F)cc5[nH]4)c3)c2)c1

>  <readout-units>
%

>  <observed-measurement>
91.99

$$$$
